Target: human TLR8 (Homo sapiens, UniProt Q9NR97)
Assay: HEK-Blue human TLR8 cells NF-κB SEAP reporter assay
Conditions: stimulation for 20 hours, Quanti Blue 640 nm
OBSERVED_PROPERTY: EC50 (nM)

These solved cases illustrate the format of a correct answer.
>>> df
                                   compound  observed_measurement
0  CCCN(CCC)C(=O)C1=Cc2ccc(C(=O)NC3(c4ccccc4)CCOCC3)cc2N=C(N)C1                    29
1  CCCN(CCC)C(=O)C1=Cc2ccc(C(=O)NC(C)(C)C)cc2N=C(N)C1                    28
2  CCCN(CCC)C(=O)C1=Cc2ccc(C(=O)NC3CCN(c4ccccc4)C3)cc2N=C(N)C1 (centres unmarked)                    19
3  CCCN(CCC)C(=O)C1=Cc2ccc(C(=O)NCc3cccnc3)cc2N=C(N)C1                    25
4  CCCN(CCC)C(=O)C1=Cc2ccc(C(=O)N[C@@H](C)c3ccccc3)cc2N=C(N)C1                    10

I. CCCN(CCC)C(=O)C1=Cc2ccc(C(=O)NCCCc3cccnc3)cc2N=C(N)C1
II. CCCN(CCC)C(=O)C1=Cc2ccc(C(=O)NC3CCCCC3)cc2N=C(N)C1
[in] Could you kindly indicate whether I or II has the higher EC50 value? Please identify the chosen entry by its label.
[out] I

====

Target: human TLR8 (Homo sapiens, UniProt Q9NR97)
Sequence (Q9NR97 27-1041): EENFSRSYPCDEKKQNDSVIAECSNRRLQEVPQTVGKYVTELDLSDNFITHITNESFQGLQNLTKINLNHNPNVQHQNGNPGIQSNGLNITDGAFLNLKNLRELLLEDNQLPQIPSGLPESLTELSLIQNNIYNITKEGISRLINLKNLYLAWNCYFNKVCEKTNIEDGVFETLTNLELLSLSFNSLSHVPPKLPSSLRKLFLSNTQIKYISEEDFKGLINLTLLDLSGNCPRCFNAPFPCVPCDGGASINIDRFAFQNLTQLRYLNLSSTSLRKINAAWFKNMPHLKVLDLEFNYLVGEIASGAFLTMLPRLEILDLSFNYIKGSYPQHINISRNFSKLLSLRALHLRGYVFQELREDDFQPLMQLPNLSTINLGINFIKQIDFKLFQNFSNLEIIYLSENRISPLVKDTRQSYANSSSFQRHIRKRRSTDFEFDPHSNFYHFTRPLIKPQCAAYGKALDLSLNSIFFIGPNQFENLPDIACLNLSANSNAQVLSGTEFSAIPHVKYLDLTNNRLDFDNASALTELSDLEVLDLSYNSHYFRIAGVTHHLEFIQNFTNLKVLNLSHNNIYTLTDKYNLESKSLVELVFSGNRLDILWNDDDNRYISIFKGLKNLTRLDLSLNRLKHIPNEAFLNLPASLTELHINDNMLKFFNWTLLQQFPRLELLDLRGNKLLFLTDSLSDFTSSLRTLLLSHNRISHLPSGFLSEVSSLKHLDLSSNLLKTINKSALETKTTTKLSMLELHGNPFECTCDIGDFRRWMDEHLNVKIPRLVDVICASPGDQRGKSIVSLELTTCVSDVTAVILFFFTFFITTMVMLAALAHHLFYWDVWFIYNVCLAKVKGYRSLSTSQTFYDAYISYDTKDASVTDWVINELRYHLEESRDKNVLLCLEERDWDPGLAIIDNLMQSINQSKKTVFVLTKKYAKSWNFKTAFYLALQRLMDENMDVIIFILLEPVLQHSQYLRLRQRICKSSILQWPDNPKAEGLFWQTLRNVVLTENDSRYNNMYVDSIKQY
Experiment: HEK-Blue human TLR8 cells NF-κB SEAP reporter assay
Conditions: stimulation for 20 hours, Quanti Blue 640 nm
pEC50: −log10 of the molar value.
OBSERVED_PROPERTY: pEC50

P. CCCN(CCC)C(=O)C1=Cc2ccc(C(=O)NC(c3ccccc3)c3ccccc3)cc2N=C(N)C1
Q. CCCN(CCC)C(=O)C1=Cc2ccc(C(=O)NCc3ccccc3)cc2N=C(N)C1
[in] Could you kindly indicate whether P or Q has the higher pEC50 value? Please identify the chosen entry by its label.
[out] P
(P: 7.96, Q: 7.59)

A. CCCN(CCC)C(=O)C1=Cc2ccc(C(=O)NC3CCCN(c4ccccc4)C3)cc2N=C(N)C1 (centres unmarked)
B. CCCN(CCC)C(=O)C1=Cc2ccc(C(=O)NC3CCN(c4ccccc4)CC3)cc2N=C(N)C1
C. CCCN(CCC)C(=O)C1=Cc2ccc(C(=O)NCCc3cccnc3)cc2N=C(N)C1
[in] Provide the items ranked by increasing pEC50. # answer = labels listed in requested order
[out] C, A, B

====

Molecular target: human TLR8 (Homo sapiens)
Assay: HEK-Blue human TLR8 cells NF-κB SEAP reporter assay
Conditions: stimulation for 20 hours, Quanti Blue 640 nm
OBSERVED_PROPERTY: EC50 (nM)

In [3]: df
Out[3]:
                        structure_as_smiles                target_desc  observed_measurement
0  CCCN(CCC)C(=O)C1=Cc2ccc(C(=O)N[C@H]3CCN(c4ccccc4)C3)cc2N=C(N)C1  human TLR8 (Homo sapiens)                    10
1  CCCN(CCC)C(=O)C1=Cc2ccc(C(=O)N[C@@H]3CCN(c4ccccc4)C3)cc2N=C(N)C1  human TLR8 (Homo sapiens)                    10
2  CCCN(CCC)C(=O)C1=Cc2ccc(C(=O)NCc3nccs3)cc2N=C(N)C1  human TLR8 (Homo sapiens)                    13

All figures here come from patent US10544102B2.
